Ref: BigSolDB 2.1

- study.conditions: in water, 282.35 K
measurement.label: solubility (mole fraction)
Please state the value as a number alone, without comment.

Memo: CCCCC[n+]1csc2ccccc21.F[P-](F)(F)(F)(F)F , reported solubility (mole fraction): 2.97e-05

Memo: CCCCCCC[n+]1csc2ccccc21.F[P-](F)(F)(F)(F)F , reported solubility (mole fraction): 2.91e-05

###

- study.conditions: in furfural, 327.81 K
measurement.label: solubility (mole fraction)
Please state the value as a number alone, without comment.

Memo: CCCCCCC[n+]1csc2ccccc21.F[P-](F)(F)(F)(F)F , reported solubility (mole fraction): 0.601

###

- study.conditions: in furfural, 311 K
measurement.label: solubility (mole fraction)
Please state the value as a number alone, without comment.

Memo: CCCC[n+]1csc2ccccc21.F[P-](F)(F)(F)(F)F , reported solubility (mole fraction): 0.3
